- target-desc: UniProtKB P0DTD1
- test: FRET-based PLpro enzymatic assay
- Type: biochemical
- test-context: 200 nM PLpro, 10 μM FRET substrate, 30 min preincubation at 30° C.; read-out: IC50
pIC50: −log10 of the molar value.

{"compound": "COCCn1cc(-c2cc([C@H](C)NC(=O)c3cc(OCCN(C)C)ccc3C)c3ccccc3n2)cn1 [Example 19]", "target-desc": "UniProtKB P0DTD1", "pIC50": "5.30 to 6.00"}
{"compound": "Cc1ccc(OCCN(C)C)cc1C(=O)N[C@H](C)c1cc(-c2ccnn2C)nc2ccccc12 [Example 13]", "target-desc": "UniProtKB P0DTD1", "pIC50": "> 6.30"}
{"compound": "Cc1ccc(N(C)CC2CN(C)C2)cc1C(=O)N[C@H](C)c1cc(-c2cnn(C)c2)nc2ccccc12 [Example 89]", "target-desc": "UniProtKB P0DTD1", "pIC50": "5.30 to 6.00"}
{"compound": "Cc1ccc(OCCN(C)C)cc1C(=O)N[C@H](C)c1cc(-c2cnn(CC(=O)N(C)C)c2)nc2ccccc12 [Example 71]", "target-desc": "UniProtKB P0DTD1", "pIC50": "> 6.30"}
